assay: probe aNog binding to arrayed compounds – biochemical, biotinylated probe, 635/667 nm fluorescence, primary screen (AID 1115); details: small-molecule microarray, higher = more signal;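 note: probe is biotinylated aNog protein used at 0.15 µg/mL for 1 h at 4 C; z-score combines 667 nm fluorescence of each spot with its signal to noise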
PROPERTY_MEASURED: composite z-score
Output: the number by itself.

molecule="COC(=O)C1(Cc2ccccc2)C=C2C(=C(C)C(=O)C2C)CN1 (stereo not given)" assay_result=1.68
molecule=CCOC(=O)C[C@H]1[C@H](OC(=O)Cc2ccc3c(c2)OCO3)[C@@H](NC(=O)c2ccc3ccccc3n2)c2cc(OCCCO)ccc2N1C(=O)Cc1ccc(OC)cc1 assay_result=-0.0184
molecule=C[N+](C)(C)CCCC[C@@H]1NC(=O)[C@H]2C[C@@H](C(=O)NCCCCCNC(=O)CS)[C@@H](c3cccc(OCCO)c3)N2C1=O assay_result=-0.234

Switching to the query record.
For reference, reported composite z-score for O=C1C[C@@](C(=O)O)(c2ccc([N+](=O)[O-])cc2)[C@@H](c2ccc(CO)cc2)N1C1CCCCC1 stands at -0.485

====

Listing of recorded composite z-score by entry.
system: Fibrinogen (Alexa647-labelled); test: Alexa647-fibrinogen binding to printed small molecules – biochemical, small-molecule microarray, 635/667 nm fluorescence, artefact control for SMM control-protein annotation, profiling panel (AID 1131); settings: fibrinogen-A647 binding fluorescence, higher = more signal;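 note: z-score merges 667 nm fluorescence with per-spot signal-to-noise over triplicate slides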

Reference set (3 entries):
molecule=CC(=O)NCCCC[C@@H]1NC(=O)[C@H]2C[C@@H](C(=O)NCCCCCCNC(=O)CS)[C@@H](c3cccc(OCCO)c3)N2C1=O experimental_target="Fibrinogen (Alexa647-labelled)" assay_result=-0.256
molecule=O=C1N(CCS(=O)(=O)c2ccccc2)c2ccccc2C[C@]12N=C(c1ccc(OCCCO)cc1)O[C@@H]2c1ccccc1 experimental_target="Fibrinogen (Alexa647-labelled)" assay_result=0.783
molecule=COCCOC(=O)N1C(=O)[C@@]2(c3ccccc31)[C@H](c1ccc(O)cc1)N1[C@H](c3ccccc3)[C@H](c3ccccc3)OC(=O)[C@H]1[C@@H]2C(=O)N1CCCCCCC1 experimental_target="Fibrinogen (Alexa647-labelled)" assay_result=0.941

Shift focus to the following entry.
The molecule CN1C(=O)C2C=CC(C(O)c3ccc(-c4ccccc4)s3)N(NC(=O)OC(C)(C)C)C2C1=O (stereo not drawn) showed composite z-score equal to 1.04

====

assay: probe aEGFR binding to arrayed compounds – biochemical, biotinylated probe, 635/667 nm fluorescence, primary screen (AID 1097); conditions: small-molecule microarray, higher = more signal;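 note: probe is a biotinylated anti-EGFR antibody binding compounds printed on slides; score combines fluorescence near 667 nm and signal to noise of each spot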
PROPERTY_MEASURED: composite z-score
Number, no unit, nothing else.

Known results for compounds:
compound=O=C1C[C@]2(c3ccc([N+](=O)[O-])cc3)C(=O)N(C3CC3)c3cc(CO)ccc3[C@H]2N1C1CCCCC1 property_measured="composite z-score" assay_result=-0.0656
compound="CC(=O)OCC1C2CC[C@H]3C(OCc4ccc(F)cc4C(F)(F)F)OC[C@]4(C)[C@H]3C2=C(CN4C(=O)OC(C)(C)C)[C@H](C)C1COC(C)=O (some centres undefined)" property_measured="composite z-score" assay_result=-0.0512
compound=COCCOC(=O)N1C(=O)[C@@]2(c3cc(C#CCCO)ccc31)[C@H](C(N)=O)[C@H]1C(=O)O[C@H](c3ccccc3)[C@H](c3ccccc3)N1[C@@H]2c1ccccc1OCCO property_measured="composite z-score" assay_result=0.105
compound=C=C(CCCC)/C(=C/C[C@@H](OC(C)=O)c1ccc(CO)o1)c1cnc2ccccc2c1 property_measured="composite z-score" assay_result=-0.0007
compound=CC(C)N1C(=O)c2ccccc2[C@](C)(C(=O)NCC(F)(F)F)[C@@H]1c1ccc(CO)cc1 property_measured="composite z-score" assay_result=-0.179

response.value for COCCOC(=O)N1C(=O)[C@@]2(c3ccccc31)[C@H](C(=O)N1CCN(c3ncccn3)CC1)[C@H]1C(=O)O[C@H](c3ccccc3)[C@H](c3ccccc3)N1[C@@H]2c1ccccc1OCCO (field: composite z-score) = -0.067
